Values were extracted from the supplement of paper PMC3334620.

Molecular target: Yer184c (UniProt P39961)
Sequence: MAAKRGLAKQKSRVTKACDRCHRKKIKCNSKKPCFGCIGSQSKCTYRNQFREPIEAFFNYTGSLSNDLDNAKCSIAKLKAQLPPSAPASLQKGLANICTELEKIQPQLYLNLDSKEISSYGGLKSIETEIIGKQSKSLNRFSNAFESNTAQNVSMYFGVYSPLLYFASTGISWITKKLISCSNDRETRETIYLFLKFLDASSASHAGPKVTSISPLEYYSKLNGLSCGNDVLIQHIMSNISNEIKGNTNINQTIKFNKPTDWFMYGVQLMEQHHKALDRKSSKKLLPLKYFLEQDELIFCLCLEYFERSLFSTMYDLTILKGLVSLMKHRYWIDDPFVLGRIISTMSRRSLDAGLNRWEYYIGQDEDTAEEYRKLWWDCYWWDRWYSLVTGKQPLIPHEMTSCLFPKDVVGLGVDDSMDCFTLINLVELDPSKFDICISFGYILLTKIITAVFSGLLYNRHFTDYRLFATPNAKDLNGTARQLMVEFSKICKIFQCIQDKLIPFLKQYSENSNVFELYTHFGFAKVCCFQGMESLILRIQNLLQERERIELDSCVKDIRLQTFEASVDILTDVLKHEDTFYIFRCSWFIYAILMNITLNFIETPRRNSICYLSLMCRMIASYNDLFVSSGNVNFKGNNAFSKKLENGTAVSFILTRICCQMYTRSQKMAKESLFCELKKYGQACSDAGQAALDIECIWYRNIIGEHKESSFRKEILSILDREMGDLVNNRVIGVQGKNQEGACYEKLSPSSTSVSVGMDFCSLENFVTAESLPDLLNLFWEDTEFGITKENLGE
Assay: PBM E-score (8-mer binding enrichment) (E-score (-0.5 to 0.5)); higher = stronger / more preferred TF binding
Conditions: protein concentration: 100 nM; construct: GST-full length
The full ranking holds about 33,000 sequences; the median of “E-score (-0.5 to 0.5)” is about -0.016, and the highest 2% start at about 0.3. Many of the other results were omitted from the sample, so the highest values are more common in it than they were.
Given measured PBM E-score, output label 1 if it is greater than or equal to 0.3 and label 0 if not.

Known results for sequences:
Sequence chain	Label
ACAAAACT	label 0
ACGAAGAA	label 0
CATAAAAA	label 0
ATAGAAAA	label 0
CGAACCCA	label 0
AACCGGCC	label 1
CCCCAATA	label 0

Please turn your attention to the following entry.
Determine whether measured PBM E-score meets or exceeds 0.3 for `CCGAAGAA`
label 1

---

Molecular target: Yer184c (UniProt P39961)
Sequence: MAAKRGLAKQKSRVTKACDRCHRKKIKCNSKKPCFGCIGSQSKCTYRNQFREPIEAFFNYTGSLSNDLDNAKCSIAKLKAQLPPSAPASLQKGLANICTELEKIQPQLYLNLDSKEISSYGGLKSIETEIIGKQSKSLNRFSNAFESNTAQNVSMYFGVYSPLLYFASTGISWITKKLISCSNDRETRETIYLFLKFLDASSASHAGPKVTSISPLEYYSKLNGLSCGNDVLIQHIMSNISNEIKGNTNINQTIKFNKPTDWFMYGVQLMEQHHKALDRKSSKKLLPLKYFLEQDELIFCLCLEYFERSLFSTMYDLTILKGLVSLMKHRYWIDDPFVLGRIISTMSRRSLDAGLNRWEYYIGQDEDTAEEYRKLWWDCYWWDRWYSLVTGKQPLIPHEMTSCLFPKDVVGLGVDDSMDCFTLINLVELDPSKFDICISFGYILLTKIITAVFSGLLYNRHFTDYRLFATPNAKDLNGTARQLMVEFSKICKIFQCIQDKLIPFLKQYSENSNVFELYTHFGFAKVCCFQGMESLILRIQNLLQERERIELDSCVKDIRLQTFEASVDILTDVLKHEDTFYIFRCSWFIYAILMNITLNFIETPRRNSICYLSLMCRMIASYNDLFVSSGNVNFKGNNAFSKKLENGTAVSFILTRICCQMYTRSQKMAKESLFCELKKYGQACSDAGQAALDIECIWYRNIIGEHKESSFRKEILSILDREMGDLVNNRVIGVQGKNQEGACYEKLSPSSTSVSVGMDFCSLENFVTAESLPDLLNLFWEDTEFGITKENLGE
Test: PBM E-score (8-mer binding enrichment) (E-score (-0.5 to 0.5)); higher = stronger / more preferred TF binding
Conditions: protein concentration: 100 nM; construct: GST-full length
The full ranking holds about 33,000 sequences; the median of “E-score (-0.5 to 0.5)” is about -0.016, and the highest 2% start at about 0.3. This excerpt belongs to a sample that is enriched for the highest values.
Parameter: PBM E-score
Give bare numbers.

Below are worked cases with known answers.
Sequence chain	PBM E-score
CACCGAGA	-0.212
GAATAGGA	0.0511

// `AATCCGAT` : PBM E-score value = 0.275
